- tgt: full-length WRN helicase (Homo sapiens)
- Construct: Full length recombinant WRN [18], BLM [19], and FANCJ [20] proteins were purified from insect cells; made in house; host or cells: insect cells
- Sequence (Q14191 whole entry): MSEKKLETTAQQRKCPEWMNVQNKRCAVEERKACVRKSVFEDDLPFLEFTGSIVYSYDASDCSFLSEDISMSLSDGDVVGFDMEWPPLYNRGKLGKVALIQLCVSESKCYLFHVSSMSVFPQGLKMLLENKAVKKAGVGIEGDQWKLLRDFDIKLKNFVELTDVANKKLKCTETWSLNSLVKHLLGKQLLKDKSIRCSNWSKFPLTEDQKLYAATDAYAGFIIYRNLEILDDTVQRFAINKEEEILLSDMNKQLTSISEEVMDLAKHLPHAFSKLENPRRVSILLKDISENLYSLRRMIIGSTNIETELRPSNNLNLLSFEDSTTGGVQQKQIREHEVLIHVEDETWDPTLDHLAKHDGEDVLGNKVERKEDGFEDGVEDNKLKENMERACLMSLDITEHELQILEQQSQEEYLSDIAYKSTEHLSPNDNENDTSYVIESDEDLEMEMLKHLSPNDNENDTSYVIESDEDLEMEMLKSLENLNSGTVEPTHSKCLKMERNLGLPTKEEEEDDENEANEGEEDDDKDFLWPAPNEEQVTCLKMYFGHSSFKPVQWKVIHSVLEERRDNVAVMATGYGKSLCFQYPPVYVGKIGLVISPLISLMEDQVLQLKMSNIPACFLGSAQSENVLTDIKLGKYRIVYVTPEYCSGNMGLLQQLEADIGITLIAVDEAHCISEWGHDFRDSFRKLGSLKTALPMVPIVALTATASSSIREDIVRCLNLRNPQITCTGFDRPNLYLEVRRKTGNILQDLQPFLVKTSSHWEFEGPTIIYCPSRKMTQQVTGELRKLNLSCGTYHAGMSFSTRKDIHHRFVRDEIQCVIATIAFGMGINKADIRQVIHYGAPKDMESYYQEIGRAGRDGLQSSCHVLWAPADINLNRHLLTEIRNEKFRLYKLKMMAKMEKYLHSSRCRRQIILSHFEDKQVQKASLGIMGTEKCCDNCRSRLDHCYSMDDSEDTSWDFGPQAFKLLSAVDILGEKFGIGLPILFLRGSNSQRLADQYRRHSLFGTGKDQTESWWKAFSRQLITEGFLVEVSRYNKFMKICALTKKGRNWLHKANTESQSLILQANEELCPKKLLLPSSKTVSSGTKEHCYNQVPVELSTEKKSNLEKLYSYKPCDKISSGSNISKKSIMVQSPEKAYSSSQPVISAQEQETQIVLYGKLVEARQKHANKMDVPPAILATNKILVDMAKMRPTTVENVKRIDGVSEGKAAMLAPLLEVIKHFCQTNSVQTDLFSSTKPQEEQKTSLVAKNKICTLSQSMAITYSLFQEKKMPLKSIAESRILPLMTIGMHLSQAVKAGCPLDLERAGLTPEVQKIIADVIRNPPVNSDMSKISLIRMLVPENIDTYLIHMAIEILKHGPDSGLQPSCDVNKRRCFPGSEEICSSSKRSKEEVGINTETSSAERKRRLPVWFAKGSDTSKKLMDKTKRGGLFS
- protocol text: Radiometric helicase inhibitor reversibility assay (100-fold dilution)
- Type: biochemical
- Design: key: (-) = irreversible; (+) = minimally reversible; (++) = partially reversible; (+++) = reversible
- condition set: WRN 100 nM preincubated at 10-fold IC50, diluted 100-fold; unwinding 0-16 min

{"molecule": "CC(C)(C)c1ccc(-c2nc(SCCCOc3ccccc3)n3[nH]c(=O)cc3n2)cc1 [NCGC00128735-02]", "tgt": "full-length WRN helicase (Homo sapiens)", "Reversibility": "+++"}
{"molecule": "CN(Cc1ccco1)[S+](=O)([O-])c1nnc(NC(=O)c2cccc(Cl)c2)s1 [NCGC00120928-02]", "tgt": "full-length WRN helicase (Homo sapiens)", "Reversibility": "-"}
{"molecule": "O=c1cc(N2CCNCC2)nc2sc(-c3ccncc3)nn12 [NCGC00183602-01]", "tgt": "full-length WRN helicase (Homo sapiens)", "Reversibility": "-"}
{"molecule": "CCc1ccc(NC(=O)c2ccc3c(O)c([S+](=O)([O-])c4ccc(Cl)cc4)c(=O)[nH]c3c2)cc1 [NCGC00123016-02]", "tgt": "full-length WRN helicase (Homo sapiens)", "Reversibility": "+++"}
